# Test system: PIK3C2B
# test settings: concentration: 1 μM, replicates: in singlicate; n = 1
test readout: %Inh (%)
Express your answer in %, writing the number without its unit.

# example entries with known answers
>  <structure notation>
Cl.Cl.c1ccc(-c2cc3ccncc3cc2OC2CCNCC2)cc1

>  <system>
PIK3C2B

>  <%Inh, %>
7

$$$$
>  <structure notation>
COc1ccc(NC(=O)Nc2ccc(C)c(-c3ccc(C(=O)Nc4ccncc4)cc3)c2)cc1

>  <system>
PIK3C2B

>  <%Inh, %>
0

$$$$

query: What value of measured %Inh is listed for Cc1cccc(-c2nc(Nc3ccc4[nH]nnc4c3)c3ccccc3n2)n1 ?
result: 0

query: Entry FC(F)(F)c1ccc(-c2nn3ncccc3c2-c2ccnc(Nc3cccc(C(F)(F)F)c3)n2)cc1 has what %Inh?
result: 0

query: Reported %Inh, compound Cc1ccc(O)cc1Nc1cc(C(F)(F)F)nc2ccc(-c3ccncc3)cc12 : ____
result: 0

query: Could you tell me which %Inh is on file for Fc1ccc(Nc2nccc(-c3c(-c4ccc(Cl)cc4)nn4ncccc34)n2)cc1F ?
result: 6

query: # input compound: O=C(c1ccc(-c2cc(-c3c[nH]nc3-c3ccccn3)ccn2)cc1)N1CCCC1 ; wanted: its %Inh
result: 0

----------
# Tested on: EPHB1
# test settings: concentration: 1 μM, replicates: in singlicate; n = 1
The entries below come with measured %Inh values attached.
Give the value, in units of %, as a plain number.

Known results for compounds:
>  <compound>
Cc1cccc(-c2nc(Nc3ccc4[nH]nnc4c3)c3ccccc3n2)n1

>  <%Inh [%]>
6

$$$$
>  <compound>
CCn1c(-c2ccncc2)nc2cnccc21

>  <%Inh [%]>
0

$$$$
>  <compound>
CC(C)N1CCC(n2cnc(-c3ccc(F)cc3)c2-c2ccnc(N)n2)CC1

>  <%Inh [%]>
0

$$$$

query: What value of measured %Inh is listed for CSc1nn2c(=O)cc(N3CCOCC3)nc2n1Cc1cccc(Cl)c1Cl ?
result: 29

query: I would be grateful if you could share the reported %Inh for Cc1cc(N2CCC(NS(=O)(=O)c3ccc(F)cc3)CC2)nc(Nc2cccc(C#N)c2)n1.O=C(O)C(F)(F)F .
result: 15

query: Tell me the measured %Inh of FC(F)(F)c1cc(Nc2nccc(-c3c(-c4ccc(Cl)cc4)nn4ncccc34)n2)ccc1Cl , please.
result: 0

query: // %Inh lookup, key: Cl.Cn1ccc(-c2cccc(Nc3ccnc4cc(-c5nccs5)ccc34)c2)n1
result: 14

query: Find the recorded %Inh belonging to COc1ccc(NC(=O)Nc2ccc(C)c(-c3ccc(C(=O)Nc4ccncc4)cc3)c2)cc1 and report it.
result: 13

query: // %Inh lookup, key: Cc1ccc(C)c(NC(=O)NCCNc2ccnc(Nc3ccc(F)cc3)n2)c1
result: 0

query: Value lookup for %Inh; key = O=c1cc(N2CCOCC2)nc2n(Cc3cccc(Cl)c3)ccn12
result: 8

query: What does the data say about its %Inh? Entry: C[C@@H]1CCN(C(=O)CO)C[C@@H]1N(C)c1ncnc2[nH]ccc12
result: 9

query: Quick one: %Inh for Cl.O=S(=O)(c1cccc(F)c1)c1ccc(Nc2ncnc3cc(Br)sc23)cc1Cl ?
result: 10

query: Requested field: %Inh. Item: Cn1ccc2ncnc(Oc3ccc(NC(=O)Nc4cccnc4)c(Cl)c3)c21
result: 9

query: Bench note: what %Inh did O=C(Nc1ccccc1F)NC1CCN(c2ccnc(Nc3ccc(F)cc3)n2)C1 (stereo not shown) show?
result: 11

query: What does the record list as %Inh for c1ccc(-c2ccc3c(-c4ccnc(Nc5ccc6c(c5)OCCO6)n4)cnn3n2)cc1 ?
result: 18

query: Entry Nc1nc(-c2ccc3c(N)n[nH]c3c2)cc(N2CCC[C@@H](C(=O)Nc3ccccc3)C2)n1.O=C(O)C(F)(F)F.O=C(O)C(F)(F)F : reported %Inh = ?
result: 21

----------
Measured pKd on ERBB4 follows.
// returns pKd (minus log10 of molar concentration), number only

In the examples that follow, each entry is paired with its recorded pKd.
>  <structure notation>
Fc1cccc(COc2ccc(Nc3ncnc4cc[nH]c34)cc2Cl)c1

>  <system>
ERBB4

>  <observed value>
6.49

$$$$
>  <structure notation>
CS(=O)(=O)CCNCc1ccc(-c2ccc3ncnc(Nc4ccc(OCc5ccccc5)c(Cl)c4)c3c2)o1.Cl

>  <system>
ERBB4

>  <observed value>
7.55

$$$$
>  <structure notation>
OCCOCCn1ccc2ncnc(Nc3ccc(Oc4cccc(Cl)c4)c(Cl)c3)c21

>  <system>
ERBB4

>  <observed value>
7.11

$$$$
>  <structure notation>
Fc1cccc(COc2ccc(Nc3ncnc4nn5ccccc5c34)cc2Cl)c1

>  <system>
ERBB4;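 note: kd values determined as follow-up on hits from a single-replicate KINOMEscan panel screen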

>  <observed value>
6.80

$$$$

Let's switch to this compound now.
query: I am curious: what pKd value has been reported for Cl.c1ccc(Cn2ncc3cc(Nc4ncnc5ccccc45)ccc32)cc1 ?
result: 7.21

----------
# System: TTK
# test settings: concentration: 1 μM, replicates: in singlicate; n = 1
Give yes (1) when the value for %Inh is at least 7%. Give no (0) when it is less.

Some solved entries appear below for comparison.
>  <molecule>
Nc1nc(-c2cccnc2)c(-c2ccnc3ccccc23)s1

>  <system>
TTK

>  <class label>
no (0)

$$$$
>  <molecule>
CC(C)(C)OC(=O)NC1CCCN(c2cc(-c3ccc4c(N)n[nH]c4c3)nc(N)n2)C1 (stereo not drawn)

>  <system>
TTK

>  <class label>
no (0)

$$$$
>  <molecule>
Fc1cccc(COc2ccc(Nc3ncnc4sc(-c5ccc[nH]5)cc34)cc2Cl)c1

>  <system>
TTK

>  <class label>
no (0)

$$$$
>  <molecule>
Nc1nc(-c2ccc3c(N)n[nH]c3c2)cc(N2CCCCC2)n1

>  <system>
TTK

>  <class label>
no (0)

$$$$
>  <molecule>
Nc1nc(-c2ccccn2)c(-c2ccnc3ccccc23)s1

>  <system>
TTK

>  <class label>
no (0)

$$$$

query: In plain terms: is recorded %Inh at least 7% for FC(F)(F)c1ccc(-c2cc(-c3c[nH]nc3-c3ccccn3)ccn2)cc1 ?
result: no (0)

query: Dear colleague, could you confirm whether O=c1cc(N2CCOCC2)nc2n(Cc3cccc(Cl)c3)ccn12 has %Inh at or above 7%?
result: yes (1)

query: Please indicate if the recorded %Inh for CC(C)(C)c1ccc(-n2cnc3c(N)ncnc32)cc1 meets or exceeds 7%.
result: yes (1)

query: Hello, I need to know if c1ccc(-c2ccc3c(-c4ccnc(Nc5ccc6c(c5)OCCO6)n4)cnn3n2)cc1 has measured %Inh not below 7%. Thanks!
result: yes (1)

query: Test whether the molecule Clc1cccc(-c2nc(Nc3ccncc3)c3ccccc3n2)c1 records %Inh of 7% or higher.
result: no (0)

----------
# System: CDKL2
# test settings: concentration: 1 μM, replicates: in singlicate; n = 1
test readout: %Inh (%)
Please give a number only; it is taken to be in %.

>  <compound>
CN1c2ccc(-c3ccc(C(=O)NCCO)cc3)cc2-c2[nH]ncc2S1(=O)=O

>  <test readout>
%Inh

>  <observed value>
0

$$$$
>  <compound>
c1ccc(-c2ccc3c(-c4ccnc(Nc5ccc6c(c5)OCCO6)n4)cnn3n2)cc1

>  <test readout>
%Inh

>  <observed value>
16

$$$$
>  <compound>
Nc1nccc2scc(-c3ccc4c(c3)CCN4C(=O)Cc3cc(F)ccc3F)c12

>  <test readout>
%Inh

>  <observed value>
17

$$$$

query: API: value(readout=%Inh, system=CDKL2) for record Cc1cccc(-c2nc(Nc3ccc4[nH]nnc4c3)c3ccccc3n2)n1
result: 25

query: Give %Inh (CDKL2) of the following compound: Oc1ccc2ncnc(Nc3ccc(OCc4ccccc4)cc3)c2c1
result: 0

query: Query the reported %Inh for CDKL2; item: Cl.c1ccc(Cn2ccc3cc(Nc4ncnc5ccccc45)ccc32)cc1
result: 4

query: Give %Inh (CDKL2) of the following compound: CCC(CC)(CC)n1cnc2c(N)ncnc21
result: 0

query: Find the measured %Inh: item CC(C)(C)c1ccc(-n2cnc3c(N)ncnc32)cc1 , target or system CDKL2.
result: 0

query: Return %Inh measured with CDKL2 given this compound: Clc1ccc(-c2cc(-c3c[nH]nc3-c3ccccn3)ccn2)cc1
result: 11

query: Record Cl.Cl.c1ccc(-c2cc3ccncc3cc2OC2CCNCC2)cc1 : what is its %Inh with CDKL2?
result: 10

query: Any idea what %Inh came out for Nc1nc(-c2ccccn2)c(-c2ccnc3ccccc23)s1 on CDKL2?
result: 24

query: Which %Inh is reported with CDKL2 for this entry: NC(=O)c1sc(-n2cnc3ccccc32)cc1OCc1ccccc1F ?
result: 22

query: Checklist item: %Inh tested on CDKL2, entry COc1cc2ncnc(Nc3ccc(OCc4ccccc4Br)c(Cl)c3)c2cc1OC.Cl , value?
result: 26

query: Tell me reported %Inh for CSc1nn2c(=O)cc(N3CCOCC3)nc2n1Cc1cccc(Cl)c1Cl , tested with CDKL2.
result: 27

query: Hello, I am looking for reported %Inh with CDKL2 for O=C(NCCCN1CCCC1=O)c1cnc(NCc2cc(Cl)ccc2Cl)nc1NC1CCNCC1 . Could you help?
result: 0
